B1: library; numbered along this chain (parent)
chain: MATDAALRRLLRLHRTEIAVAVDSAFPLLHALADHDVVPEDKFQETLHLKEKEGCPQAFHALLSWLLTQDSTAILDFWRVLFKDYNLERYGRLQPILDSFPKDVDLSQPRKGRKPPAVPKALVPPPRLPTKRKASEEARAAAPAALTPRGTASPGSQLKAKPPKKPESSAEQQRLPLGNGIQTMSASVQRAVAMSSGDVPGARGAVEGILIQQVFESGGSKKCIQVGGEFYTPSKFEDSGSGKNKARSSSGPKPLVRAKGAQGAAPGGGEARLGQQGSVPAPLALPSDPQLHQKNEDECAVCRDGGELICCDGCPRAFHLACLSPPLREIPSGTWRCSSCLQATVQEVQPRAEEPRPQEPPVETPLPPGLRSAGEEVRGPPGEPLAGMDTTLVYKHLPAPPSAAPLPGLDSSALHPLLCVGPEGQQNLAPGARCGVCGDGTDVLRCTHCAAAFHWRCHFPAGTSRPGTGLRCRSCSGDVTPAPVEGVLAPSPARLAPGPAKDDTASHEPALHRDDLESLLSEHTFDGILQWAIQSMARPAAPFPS

- Variants of: B1
- test: AIRE transcriptional activation functional score (insulin promoter-GFP; nonsense median 0, synonymous median 1) (normalised score); higher = higher AIRE activity (more reporter activation)
- measurementContext: with insulin promoter-GFP reporter in HEK293
measuredQuantity: AIRE transcriptional activation functional score

Illustrative cases are given below, each with its answer.
mutantDesignation: K253R
endpointValue: 0.777
--
mutantDesignation: S372E
endpointValue: 1.3
--
mutantDesignation: H292P
endpointValue: 0.865
--
mutantDesignation: F215H
endpointValue: 0.814
--
mutantDesignation: L291C
endpointValue: 1.01

Query :: Find the recorded AIRE transcriptional activation functional score belonging to P407S and report it.
Result :: 1.19

Query :: Give the measured AIRE transcriptional activation functional score of K50R .
Result :: 0.745

Query :: Dear colleague, I am looking for the recorded AIRE transcriptional activation functional score of the following variant: P365R
Result :: 1.28

Query :: Name the reported AIRE transcriptional activation functional score value associated with the variant I96S
Result :: -0.438

Query :: Value lookup for AIRE transcriptional activation functional score; key = L285F
Result :: 0.835

Query :: Which AIRE transcriptional activation functional score reading was recorded for the variant E51K ?
Result :: 0.391

Query :: Look up AIRE transcriptional activation functional score: P233N
Result :: 1.51

Query :: Any idea what AIRE transcriptional activation functional score was measured for V420G ?
Result :: 0.846

Query :: Give the measured AIRE transcriptional activation functional score of F100S .
Result :: 0.172

Query :: Requested field: AIRE transcriptional activation functional score. Item: V436Q
Result :: 0.854

Query :: Return reported AIRE transcriptional activation functional score; argument: V192K
Result :: 1.14
